# System: COLO 205 colon
# run description: NCI-60 one-dose screen, 48 h
# reported conditions: 10 µM unless noted
# Method: Cells are grown in 96 well plates and exposed to the test compound for 48 hours. Compounds are tested at a single concentration, which is 10^-5 M for most compounds. The reported endpoint is percent growth (GI% or GIPRCNT), where numbers from 0 - 100% represent growth inhibition, and numbers from -100% - 0 represent cell death. For example, a value of 40 represents 60% growth inhibition. A value of 0 means no net growth occurred over the course of the experiment. […]
About 83,000 compounds went through this panel and 20% of them were active in at least one assay; those are over-represented in the sample as a whole. The source made the active and inactive calls. How the source made its calls: active means growth percent below 10; inactive means the rest.
Write down one outcome, taken from 1 (active), -1 (inactive)

Query :: Hey, what did the test say about COc1cc2c3c(c(=O)oc2cc1OS(=O)(=O)c1ccc(C(F)(F)F)cc1)CCCCC3 ?
Result :: -1

Query :: // same read-out, input: COc1cc2nc(N3CCC[C@@H](NC4=CC(=O)c5ccccc5C4=O)C3)nc(N)c2cc1OC
Result :: 1

Query :: // same read-out, input: COc1ncc(-c2ccc3ncnc(Nc4cccc(Cl)c4)c3c2)cc1NS(=O)(=O)CCN1CCOCC1
Result :: 1

Query :: // same read-out, input: O=C(Cc1n[nH]c(=O)c2ccccc12)OCc1c(Cl)cccc1Cl
Result :: -1

Query :: // same read-out, input: CCCCCCC[C@@H](O)CC(=O)N[C@H](CCCCN)C(=O)N[C@H](Cc1c[nH]c2ccccc12)C(=O)NC(CCCCN)C(=O)N[C@H](CC(C)C)C(=O)N[C@H](Cc1ccccc1)C(=O)N[C@H](CCCCN)C(=O)N[C@H](CCCCN)C(=O)N[C@H](CC(C)C)C(=O)N1CCCC1C(=O)N[C@H](CCCCN)C(=O)N[C@H](Cc1ccccc1)C(=O)N[C@H](CC(C)C)C(=O)N[C@H](Cc1c[nH]cn1)C(=O)N[C@H](CC(C)C)C(=O)N[C@H](C)C(=O)N[C@H](CCCCN)C(=O)N[C@H](CCCCN)C(=O)N[C@H](Cc1ccccc1)C(=O)O (stereo partly specified)
Result :: 1

Query :: // same read-out, input: O=C(Nc1ccc(Cl)cc1)c1cc(-c2ccc(F)cc2)c2sc(=O)[nH]c2n1
Result :: 1

Query :: // same read-out, input: COc1ccc(C(=O)/C=C/c2cc(C(=O)c3cc(OC)c(OC)c(OC)c3)ccc2OC)cc1
Result :: -1

Query :: // same read-out, input: CC(Cc1nnc(SCC(=O)Nc2ccc(I)cc2)n1N)c1ccccc1 (stereo unspecified)
Result :: -1

Query :: // same read-out, input: O=C(Nc1cccc(C(F)(F)F)c1)Nc1ccc(OCc2nnc(-c3ccccc3)o2)c(F)c1
Result :: -1

Query :: // same read-out, input: O=C(CCC(=O)OC1CCCC1)OC1CCCC1
Result :: -1

Query :: // same read-out, input: CC1=NN2C(=NC3=C(CCC/C3=C\c3ccc(Cl)cc3)C2c2ccc(Cl)cc2)S1 (stereo unspecified)
Result :: -1

Query :: // same read-out, input: COc1cc2c(cc1OCCCCn1c(-c3cc(=O)c4ccccc4o3)nc3ccccc31)N=C[C@@H]1CCCN1C2=O
Result :: -1

Query :: // same read-out, input: Cc1cc(N/C=c2\sc3ncnn3c2=O)no1
Result :: -1

Query :: // same read-out, input: COc1cc(C(=O)OCCCCCCCCCCC[P+](c2ccccc2)(c2ccccc2)c2ccccc2)ccc1O
Result :: 1

Query :: // same read-out, input: COc1ccc(C2CC(c3cccs3)=NN2c2ccc(S(=O)(=O)NC(=O)Nc3ccc(C)cc3)cc2)cc1 (stereo unspecified)
Result :: 1

Query :: // same read-out, input: CCCCCc1c(C)[nH]c(/C=c2\[nH]/c(=C3/C=c4ccccc4=N3)cc2OC)c1C
Result :: 1
